Numbers sourced from paper PMC11528320.

IC50 listing for selected compounds.
# System: P. falciparum 3D7
# TEST_NAME: in vitro asexual P. falciparum imaging assay, 3D7 strain
# Type: cell-based
# CONDITIONS: Plasmodium falciparum, 3D7, 72 h; read-out: 3D7 IC50
READOUT_TYPE: IC50 (nM)

- CN(C)CCNC(=O)c1cc(NC(=O)c2cc(NC(=O)c3ccc(/C=C/c4ccc(N(C)C)cc4)nc3)cn2C)cn1C.O=C(O)C(F)(F)F [S-MGB-246]: 43
- CC(C)CCc1sc(NC(=O)c2cc(NC(=O)c3ccc(/C=C/c4cccc(C(F)(F)F)c4)nc3)cn2C)nc1C(=O)NCCCN(C)C.O=C(O)C(F)(F)F [S-MGB-380]: 74.7
- Cn1cc(NC(=O)c2cc(NC(=O)c3ccc(/C=C/c4ccc(C(F)(F)F)cc4)cc3)cn2C)cc1C(=O)NCCN1CCOCC1.O=C(O)C(F)(F)F [S-MGB-176]: 756

---

# Test system: HEK293 cells
# TEST_NAME: HEK293 cell viability (resazurin) assay
# Type: cell-based, Human
# CONDITIONS: ratio of HEK293 IC50 (or relative IC50) to P. falciparum 3D7 IC50
READOUT_TYPE: SI, HEK293/3D7

* CC(C)CCc1sc(NC(=O)c2cc(NC(=O)c3ccc(/C=C/c4cccc(C(F)(F)F)c4)nc3)cn2C)nc1C(=O)NCCCN(C)C.O=C(O)C(F)(F)F | 110
* CN(C)CCNC(=O)c1cc(NC(=O)c2cc(NC(=O)c3ccc(/C=C/c4cnc5ccccc5c4)cc3)cn2C)cn1C.O=C(O)C(F)(F)F | 94
* CC(C)n1cc(NC(=O)c2cc(NC(=O)c3ccc(/C=C/c4cnc5ccccc5c4)cc3)cn2C)cc1C(=O)NCCN1CCOCC1.O=C(O)C(F)(F)F | 33
* CC(C)CCc1sc(NC(=O)c2cc(NC(=O)c3ccc(/C=C/c4ccc(F)cc4)nc3)cn2C)nc1C(=O)NCCCN(C)C.O=C(O)C(F)(F)F | 62
* CCc1nc(N)nc(N)c1-c1ccc(Cl)cc1 [Pyrimeth-amine, pyrimethamine, reference compound] | 1478

---

# System: P. falciparum 3D7
# TEST_NAME: in vitro asexual P. falciparum imaging assay, 3D7 strain
# Assay type: cell-based
# CONDITIONS: Plasmodium falciparum, 3D7, 72 h; read-out: 3D7 IC50
Lab note: compare IC50 with 200 nM, writing 1 if less and -1 if equal or more.

- CCc1nc(N)nc(N)c1-c1ccc(Cl)cc1 [Pyrimeth-amine, pyrimethamine, reference compound]: 1
- CC(C)CCc1sc(NC(=O)c2cc(NC(=O)c3cc(NC(=O)c4cccc(F)c4)cn3C)cn2C)nc1C(=O)NCCCN(C)C.O=C(O)C(F)(F)F [S-MGB-386]: -1
- CN(C)c1ccc(/C=C/c2ccc(C(=O)Nc3cc(C(=O)Nc4cc(C(=O)NCCN5CCOCC5)n(C)c4)n(C)c3)cn2)cc1.O=C(O)C(F)(F)F [S-MGB-245]: 1
- CN(C)CCCNC(=O)c1cc(NC(=O)c2cc(NC(=O)c3cc(NC(=N)c4cc5ccccc5cn4)cn3C)cn2C)cn1C.O=C(O)C(F)(F)F [S-MGB-337]: 1
- Cn1cc(NC(=O)c2cc(NC(=O)c3ccc(/C=C/c4ccc(F)cc4)cc3)cn2C)cc1C(=O)NCCC(=N)N.O=C(O)C(F)(F)F [S-MGB-390]: -1
- COc1ccc(C[C@H](N)C(=O)N[C@H]2[C@@H](O)[C@H](n3cnc4c(N(C)C)ncnc43)O[C@@H]2CO)cc1 [Puromycin, puromycin, reference compound]: 1
- CC(C)CCc1sc(NC(=O)c2cc(NC(=O)c3ccc(/C=C/c4ccc(F)cc4)nc3)cn2C)nc1C(=O)NCCCN(C)C.O=C(O)C(F)(F)F [S-MGB-376]: 1
- Cn1cc(NC(=O)c2cc(NC(=O)c3ccc(/C=C/c4cccc(F)c4)cc3)cn2C)cc1C(=O)NCCC(=N)N.O=C(O)C(F)(F)F [S-MGB-391]: -1
- COc1ccc(/C=C/c2ccc(C(=O)Nc3cc(C(=O)Nc4cc(C(=O)NCCC(=N)N)n(C)c4)n(C)c3)cc2)cc1.O=C(O)C(F)(F)F [S-MGB-367]: -1
- CC(C)CCc1sc(NC(=O)c2cc(NC(=O)c3ccc(/C=C/c4cccc(F)c4)cc3)cn2C)nc1C(=O)NCCCN(C)C.O=C(O)C(F)(F)F [S-MGB-378]: 1
- Cn1cc(NC(=O)c2cc(NC(=O)c3ccc(/C=C/c4ccncc4)cc3)cn2C)cc1C(=O)NCCC(=N)N.O=C(O)C(F)(F)F.O=C(O)C(F)(F)F [S-MGB-365]: 1

---

# System: HEK293 cells
# TEST_NAME: HEK293 cell viability (resazurin) assay
# Format: cell-based, Human
# CONDITIONS: Homo sapiens, HEK293; 80 μM; 72 h
Examples of compounds with documented inhibition at 80 µM follow.
READOUT_TYPE: inhibition at 80 µM (%)

- Cn1cc(NC(=O)c2cc(NC(=O)c3ccc(/C=C/c4ccc(F)cc4)cc3)cn2C)cc1C(=O)NCCC(=N)N.O=C(O)C(F)(F)F: 78
- COc1cccc(/C=C/c2ccc(C(=O)Nc3cc(C(=O)Nc4cc(C(=O)NCCN(C)C)n(C)c4)n(C)c3)cc2)c1.O=C(O)C(F)(F)F: 100
- CN(C)CCCNC(=O)c1cc(NC(=O)c2cc(NC(=O)c3cc(NC(=N)c4cc5ccccc5cn4)cn3C)cn2C)cn1C.O=C(O)C(F)(F)F: 101
- Cn1cc(NC(=O)c2cc(NC(=O)c3ccc(/C=C/c4ccncc4)cc3)cn2C)cc1C(=O)NCCC(=N)N.O=C(O)C(F)(F)F.O=C(O)C(F)(F)F: 95
- CC(C)CCn1cc(NC(=O)c2cc(NC(=O)c3cc(NC(=N)c4cc5ccccc5cn4)cn3C)cn2C)cc1C(=O)NCCCN(C)C.O=C(O)C(F)(F)F: 100
- Cn1cc(NC(=O)c2cc(NC(=O)c3ccc(/C=C/C(=O)Nc4ccccc4O)cc3)cn2C)cc1C(=O)NCCC(=N)N.O=C(O)C(F)(F)F: 90
- COc1cccc(/C=C/c2ccc(C(=O)Nc3cc(C(=O)Nc4cc(C(=O)NCCCN(C)C)n(C)c4)n(C)c3)cc2)c1.O=C(O)C(F)(F)F: 101

---

Entries annotated with measured pIC50
# System: P. falciparum Dd2
# TEST_NAME: in vitro asexual P. falciparum imaging assay, Dd2 strain
# Assay type: cell-based
# CONDITIONS: Plasmodium falciparum, DD2, 72 h; read-out: Dd2 IC50
pIC50: −log10 of the molar value.
READOUT_TYPE: pIC50

• Cn1cc(NC(=O)c2cc(NC(=O)c3ccc(NC(=O)c4cccc(F)c4)cc3)cn2C)cc1C(=O)NCCC(=N)N.O=C(O)C(F)(F)F = 6.31
• CC(C)CCc1sc(NC(=O)c2cc(NC(=O)c3ccc(/C=C/c4ccc(F)cc4)cc3)cn2C)nc1C(=O)NCCCN(C)C.O=C(O)C(F)(F)F = 6.83
• COc1cccc(/C=C/c2ccc(C(=O)Nc3cc(C(=O)Nc4cc(C(=O)NCCN(C)C)n(C)c4)n(C)c3)cc2)c1.O=C(O)C(F)(F)F = 6.86
• CN(C)CCCNC(=O)c1cc(NC(=O)c2cc(NC(=O)c3cc(NC(=N)c4cc5ccccc5cn4)cn3C)cn2C)cn1C.O=C(O)C(F)(F)F = 6.99
• Cn1cc(NC(=O)c2cc(NC(=O)c3ccc(/C=C/c4ccc5ccccc5c4)cc3)cn2C)cc1C(=O)NCCC(=N)N.O=C(O)C(F)(F)F = 6.50
• COc1ccc2nc3cc(Cl)ccc3c(Nc3cc(CN4CCCC4)c(O)c(CN4CCCC4)c3)c2n1 [Pyronaridine, pyronaridine, reference compound] = 7.48

---

# System: P. falciparum 3D7
# TEST_NAME: in vitro asexual P. falciparum imaging assay, 3D7 strain
# Assay type: cell-based
# CONDITIONS: Plasmodium falciparum, 3D7, 72 h, read-out: 3D7 IC50
READOUT_TYPE: IC50

- CCN(CC)CCCC(C)Nc1ccnc2cc(Cl)ccc12 (stereo not shown) [Chloroquine, chloroquine, reference compound]: 31.3 nM

---

# Test system: P. falciparum Dd2
# TEST_NAME: in vitro asexual P. falciparum imaging assay, Dd2 strain
# Format: cell-based
# CONDITIONS: Plasmodium falciparum, DD2, 72 h; read-out: Dd2 IC50
Friendly reminder: IC50 below 80 nM is t, at or above is f.

- CC(C)CCc1sc(NC(=O)c2cc(NC(=O)c3ccc(/C=C/c4ccc(C(F)(F)F)cc4)cc3)cn2C)nc1C(=O)NCCCN(C)C.O=C(O)C(F)(F)F [S-MGB-377]: f
- CC(C)CCc1sc(NC(=O)c2cc(NC(=O)c3ccc(/C=C/c4cccc(C(F)(F)F)c4)nc3)cn2C)nc1C(=O)NCCCN(C)C.O=C(O)C(F)(F)F [S-MGB-380]: f
- CC(C)CCc1sc(NC(=O)c2cc(NC(=O)c3ccc(/C=C/c4cccc(F)c4)cc3)cn2C)nc1C(=O)NCCCN(C)C.O=C(O)C(F)(F)F [S-MGB-378]: f
- CC(C)n1cc(NC(=O)c2cc(NC(=O)c3ccc(/C=C/c4cnc5ccccc5c4)cc3)cn2C)cc1C(=O)NCCN1CCOCC1.O=C(O)C(F)(F)F [S-MGB-192]: f
- CN(C)CCNC(=O)c1cc(NC(=O)c2cc(NC(=O)c3ccc(/C=C/c4cnc5ccccc5c4)cc3)cn2C)cn1C.O=C(O)C(F)(F)F [S-MGB-248]: t
- CC(C)CCc1sc(NC(=O)c2cc(NC(=O)c3ccc(/C=C/c4ccc(F)cc4)nc3)cn2C)nc1C(=O)NCCCN(C)C.O=C(O)C(F)(F)F [S-MGB-376]: f
